- Assay target: Signal peptidase I (Escherichia coli K-12) (UniProt P00803)
- Sequence (P00803 whole entry): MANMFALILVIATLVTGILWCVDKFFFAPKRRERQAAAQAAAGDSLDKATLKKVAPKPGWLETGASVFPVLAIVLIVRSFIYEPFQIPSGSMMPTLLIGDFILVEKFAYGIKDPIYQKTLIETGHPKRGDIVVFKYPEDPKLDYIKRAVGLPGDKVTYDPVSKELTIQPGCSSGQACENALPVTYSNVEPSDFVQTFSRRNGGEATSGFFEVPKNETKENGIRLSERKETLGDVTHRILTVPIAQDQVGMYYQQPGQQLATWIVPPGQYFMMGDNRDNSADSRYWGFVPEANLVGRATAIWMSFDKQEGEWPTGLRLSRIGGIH
- Method: Inhibition of Escherichia coli type 1 signal peptidase lepB assessed as residual activity at 0.0098 uM preincubated for 10 mins followed by Dabcyl-VGGTATAYGAFSRPGLE-(EDANS)-OH substrate addition measured after 2 hrs by FRET based assay (reference value: 100%)
Would you kindly list Activity for each of these compounds?
Numbers only, in %.

Example entries begin here.
{"Smi": "CCCCCCc1ccc(-c2ccc(C(=O)N[C@@H](CCCN)C(=O)N[C@H](C(=O)N[C@@H](C)C(=O)N[C@H]3Cc4cn(nn4)CCN4C[C@@H]5OB(O[C@@H]5C4)[C@H](C)NC3=O)[C@@H](C)O)cc2)cc1", "Readout number": 77.9}
{"Smi": "CCCCCCc1ccc(-c2ccc(C(=O)N[C@@H](CCCN)C(=O)N[C@H](C(=O)N[C@@H](C)C(=O)N[C@H]3Cc4cn(nn4)CCCN4C[C@@H]5OB(O[C@@H]5C4)[C@H](C)NC3=O)[C@@H](C)O)cc2)cc1", "Readout number": 76.7}
{"Smi": "C[C@@H]1NC(=O)[C@@H](NC(=O)[C@H](C)NC(=O)[C@@H](NC(=O)[C@H](CCCN)NC(=O)C#Cc2ccc(-c3ccccc3)cc2)[C@@H](C)O)Cc2cn(nn2)CCO[C@@H]2C[C@@H]3OB1O[C@@H]3C2", "Readout number": 99}

In the following, a different compound is considered.
Given CCCCCCc1ccc(-c2ccc(C(=O)N[C@@H](CCCNC(=N)N)C(=O)N[C@H](C(=O)N[C@@H](C)C(=O)N[C@H]3Cc4cn(nn4)CCCN4C[C@@H]5OB(O[C@@H]5C4)[C@H](C)NC3=O)[C@@H](C)O)cc2)cc1 , respond with its Activity. 101

====

- Assay target: UniProt:P00803
- Method: Inhibition of Escherichia coli type 1 signal peptidase lepB assessed as residual activity at 0.0024 uM preincubated for 10 mins followed by Dabcyl-VGGTATAYGAFSRPGLE-(EDANS)-OH substrate addition measured after 2 hrs by FRET based assay (reference value: 100%)
Observation type: Activity (%)
Give bare numbers, in %.

{"Smi": "CCCCCCc1ccc(-c2ccc(C(=O)N[C@@H](CCCN)C(=O)N[C@H](C(=O)N[C@@H](C)C(=O)N[C@H]3Cc4cn(nn4)CCN4C[C@@H]5OB(O[C@@H]5C4)[C@H](C)NC3=O)[C@@H](C)O)cc2)cc1", "Observation type": "Activity", "Readout number": 79.9}
{"Smi": "C[C@@H]1NC(=O)[C@@H](NC(=O)[C@H](C)NC(=O)[C@@H](NC(=O)[C@H](CCCN)NC(=O)c2ccc(-c3ccccc3)cc2)[C@@H](C)O)Cc2cn(nn2)CCO[C@@H]2C[C@@H]3OB1O[C@@H]3C2", "Observation type": "Activity", "Readout number": 94.6}
{"Smi": "C[C@@H]1NC(=O)[C@@H](NC(=O)[C@H](C)NC(=O)[C@@H](NC(=O)[C@H](CCCN)NC(=O)c2ccc(=O)n(-c3ccccc3)c2)[C@@H](C)O)Cc2cn(nn2)CCO[C@@H]2C[C@@H]3OB1O[C@@H]3C2", "Observation type": "Activity", "Readout number": 82.4}

In the following, a different molecule is considered.
Given CCCCCCc1ccc(-c2nc3cc(C(=O)N[C@@H](CCCN)C(=O)N[C@H](C(=O)N[C@@H](C)C(=O)N[C@H]4Cc5cn(nn5)CCO[C@@H]5C[C@@H]6OB(O[C@@H]6C5)[C@H](C)NC4=O)[C@@H](C)O)ccc3[nH]2)cc1 , respond with its Activity. 92.8
